tested on: E21 (patient-derived glioblastoma stem cells of mesenchymal subtype); experiment: surviving fraction (nuclei count normalised to DMSO); higher = more cells surviving (less toxic); conditions: 37 nM; exposure time: 72 h;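 also: nuclei counted by high-content imaging of Hoechst-stained cells in laminin-coated 384-well plates, relative to 0.1% DMSO vehicle wells, with staurosporine as cell-death control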
Where a name gives a salt, the structure may show the parent alone.
The following compounds are shown together with reported surviving fraction values.

| compound | surviving fraction |
| --- | --- |
| CN1C(=O)OC(C)(C)C1=O [Trimethadione] | 0.937 |
| COc1cc(N)c(Cl)cc1C(=O)NC1CCN(CCCOc2ccc(F)cc2)CC1OC (configuration not stated) [Cisapride] | 0.956 |
| Clc1ccc(CSC(Cn2ccnc2)c2ccc(Cl)cc2Cl)cc1 (configuration not stated) [Sulconazole nitrate] | 1.03 |
| COc1ccc([C@@H]2CC(=O)c3c(O)cc(O[C@@H]4O[C@H](CO[C@@H]5O[C@@H](C)[C@H](O)[C@@H](O)[C@H]5O)[C@@H](O)[C@H](O)[C@H]4O)cc3O2)cc1O [Hesperidin] | 0.918 |
| CNc1ccc2oc(C[C@H]3O[C@@]4(CC[C@H]3C)O[C@H]([C@H](C)C(=O)c3ccc[nH]3)[C@H](C)C[C@H]4C)nc2c1C(=O)O [Calcimycin] | 0.951 |
| COc1cccc2c1C(=O)c1c(O)c3c(c(O)c1C2=O)C[C@@](O)(C(C)=O)C[C@@H]3O[C@H]1C[C@H](N)[C@H](O)[C@H](C)O1 [Daunorubicin hydrochloride] | 0.451 |
| COc1nc(C)nc(Cl)c1NC1=NCCN1 [Moxonidine] | 0.924 |
